We begin with a simple list: items and their reported inhibition at 1.1 µM.
biological target: HIV-1 protease (Human immunodeficiency virus type 1 group M subtype B); assay: biochemical; conditions: read-out: HIV-1 Protease % Inhib, dose 1.100 uM
Use % as the unit, but write only the number.

// known answers, use as guide
Fill in the blank: the reported inhibition at 1.1 µM of CCC(c1cccc(NS(=O)(=O)c2ccc(C#N)cc2)c1)c1c(O)c2c(oc1=O)CCCCCC2 (stereo not shown) [Example 222] is ____.
103

Cool, now O=c1oc2c(c(O)c1C(c1ccccc1)C1CC1)CCCCCC2CC1CCCO1 (single isomer, unassigned) [Example 170]
92.5

More entries:
Fill in the blank: the reported inhibition at 1.1 µM of CCCC(c1cccc(NS(=O)(=O)c2cn(C)cn2)c1)c1c(O)c2c(oc1=O)CCCCCC2 (stereo not shown) [Example 431] is ____.
109

Cool, now O=c1oc2c(c(O)c1C(c1cccc(NS(=O)(=O)c3cccc(Br)c3)c1)C1CC1)CCCCCC2 (stereo not shown) [Example 291]
109

Cool, now COC(=O)c1cccc(S(=O)(=O)Nc2cccc(C(c3c(O)c4c(oc3=O)CCCCCC4)C3CC3)c2)c1 (stereo not shown) [Example 354]
96.1

Cool, now CCCC1CCCCCc2c1oc(=O)c([C@H](c1ccccc1)C1CC1)c2O (mixture of isomers) [Example 235]
92.7

Cool, now O=c1oc2c(c(O)c1C(c1ccccc1)C1CC1)CCCCCC2CC1CCCCO1 (stereo not shown) [Example 130]
54
